biological target: Alkaline phosphatase, tissue-nonspecific isozyme (Homo sapiens); experiment: Concentration required for 50% inhibition of human leukocyte alkaline phosphatase in the presence of 10 mM p-nitrophenyl phosphate as substrate
pIC50: −log10 of the molar value.
QUANTITY_MEASURED: pIC50

1. O=C(O)c1ccc2nc3ccc(O)cc3c(=O)n2c1
2. CCCOc1ccccc1-c1nc2nn[nH]c2c(=O)[nH]1
Dear colleague, could you let me know whether 1 or 2 has the lower recorded pIC50? Thanks. Your answer should be the label of the entry you select.
2

----------
biological target: Alkaline phosphatase, tissue-nonspecific isozyme (Homo sapiens); experiment: Concentration required for 50% inhibition of human leukocyte alkaline phosphatase in the presence of 10 mM p-nitrophenyl phosphate as substrate
QUANTITY_MEASURED: IC50 (mM)

A. O=C(O)c1cc(=O)c2c(OCC(O)COc3cccc4oc(C(=O)O)cc(=O)c34)cccc2o1 [Crolom]
B. CCCCc1cc2c(O)cc(C(=O)O)nc2c2c(O)cc(C(=O)O)nc12
Just curious, which one has the larger IC50 reading, A or B ? Your answer should be the label of the entry you select.
A
